These entries and their values trace back to paper PMC9317327.

Test system: Vibrio alginolyticus (A056)
Format: cell-based
Details: 2 h, pH 7.2
Where a SMILES comes first, the peptide text is derived from it.
value_type: MIC

Check out these entries, answers already filled in.
Data request: # get_value(readout='MIC', item= CC[C@H](C)[C@H](NC(=O)CNC(=O)[C@H](Cc1c[nH]cn1)NC(=O)[C@H](CC(C)C)NC(=O)[C@H](CC(C)C)NC(=O)[C@H](Cc1ccccc1)NC(=O)CNC(=O)[C@H](C)NC(=O)[C@H](CCCNC(=N)N)NC(=O)[C@@H](NC(=O)[C@@H](N)CCCNC(=N)N)C(C)C)C(=O)N[C@@H](CCCCN)C(=O)N[C@@H](CCCNC(=N)N)C(=O)N[C@@H](CO)C(=O)N[C@@H](CCCNC(=N)N)C(=O)O [NpHM5] (H-RVRAGFLLHGIKRSR-OH) )
Data returned: 15 to 70 µM

Data request: Quick one: MIC for CC[C@H](C)[C@H](NC(=O)CNC(=O)[C@H](Cc1c[nH]cn1)NC(=O)[C@H](CC(C)C)NC(=O)[C@H](CC(C)C)NC(=O)[C@H](Cc1ccccc1)NC(=O)CNC(=O)[C@H](C)NC(=O)[C@H](Cc1ccccc1)NC(=O)[C@@H](NC(=O)[C@@H](N)CCCNC(=N)N)C(C)C)C(=O)N[C@@H](CCCCN)C(=O)N[C@@H](CCCNC(=N)N)C(=O)N[C@@H](CO)C(=O)N[C@@H](CCCNC(=N)N)C(=O)O [NpHM2] (H-RVFAGFLLHGIKRSR-OH) ?
Data returned: 70 to 150 µM

Now consider a different compound.
Data request: Please look up its MIC: CC[C@H](C)[C@H](NC(=O)CNC(=O)[C@H](Cc1c[nH]cn1)NC(=O)[C@H](CCCNC(=N)N)NC(=O)[C@H](CC(C)C)NC(=O)[C@H](Cc1ccccc1)NC(=O)CNC(=O)[C@H](C)NC(=O)[C@H](CCCNC(=N)N)NC(=O)[C@@H](NC(=O)[C@@H](N)CCCNC(=N)N)C(C)C)C(=O)N[C@@H](CCCCN)C(=O)N[C@@H](CCCNC(=N)N)C(=O)N[C@@H](CO)C(=O)N[C@@H](CCCNC(=N)N)C(=O)O [NpHM7] (H-RVRAGFLRHGIKRSR-OH)
Data returned: >150 µM
